- experiment.description: in vivo
- run.parameters: rat
endpoint.label: Tmax

Record request: Tmax value, item CC(C)NCC(O)COc1cccc2ccccc12 (stereo not shown) ≤ 5 min

====

- experiment.description: in vivo
- run.parameters: dog, bioavailability from the nasal route relative to the intravenous route
endpoint.label: bioavailability

Requested field: bioavailability. Item: CC(C)NCC(O)COc1cccc2ccccc12 (stereo not shown) 99.1%

====

- experiment.description: in vivo
- run.parameters: dog, po, AUC(P.O.)/AUC(I.V.)
endpoint.label: bioavailability at 8 h (%)
// units = %; emit number, no label

Look at this molecule and give its reported bioavailability at 8 h. CC(C)NCC(O)COc1cccc2ccccc12 (stereo not shown) 8.9

====

- experiment.description: in vivo
- run.parameters: rat, po, Ratio (AUC oral vs I.V.)
endpoint.label: bioavailability at 4 h
Kindly write the number and append the unit.

Could you tell me which bioavailability at 4 h is on file for CC(C)NCC(O)COc1cccc2ccccc12 (stereo not shown) [propranolol] ? 17.9%

====

- experiment.description: in vivo
- run.parameters: dog, po, bioavailability from the oral route relative to the intravenous route
endpoint.label: bioavailability (%)
Reply numerically in %, unit not repeated.

Need bioavailability, item CC(C)NCC(O)COc1cccc2ccccc12 (stereo not shown) 7.4
